- study.system: DRB1*0301 (Homo sapiens, UniProt P01903+P01911, A100K/A102G/A103R/A169T/F55Y/I96L/K41T/L162R/M171V/P40S/Q125H/Q178H/Q39Y/R42S/S66N/T106N/T262R/W38E/Y61H)
- Construct: endogenous in cells; HLA-DR was extracted from cell lysates on an LB3.1 antibody column
- assay.comment: Competition binding assay using soluble HLA class II
Where a SMILES comes first, the peptide text is derived from it.
fulfilled if IC50 is below 0.9 µM. not fulfilled if not; exact matches included in not fulfilled.

- molecule: "CC(C)C[C@H](NC(=O)[C@H](CCCNC(=N)N)NC(=O)[C@@H]1CCCN1C(=O)CN)C(=O)NCC(=O)N[C@H](C(=O)N[C@@H](CCCNC(=N)N)C(=O)N[C@@H](C)C(=O)N[C@H](C(=O)N[C@@H](CCCNC(=N)N)C(=O)N[C@@H](CCCCN)C(=O)N[C@H](C(=O)N[C@@H](CO)C(=O)N[C@@H](CCC(=O)O)C(=O)N[C@@H](CCCNC(=N)N)C(=O)O)[C@@H](C)O)[C@@H](C)O)C(C)C (H-GPRLGVRATRKTSER-OH; N-terminus and C-terminus assumed)"
  answer.label: "not fulfilled"
- molecule: "CC(C)C[C@H](NC(=O)[C@@H](NC(=O)[C@@H](NC(=O)[C@@H](N)CC(C)C)C(C)C)C(C)C)C(=O)N[C@@H](C)C(=O)N[C@H](C(=O)N[C@@H](C)C(=O)N[C@H](C(=O)N1CCC[C@H]1C(=O)N1CCC[C@H]1C(=O)NCC(=O)N[C@@H](CO)C(=O)N[C@H](C(=O)N[C@H](C(=O)N[C@H](C(=O)O)C(C)C)[C@@H](C)O)C(C)C)[C@@H](C)O)[C@@H](C)O (H-LVVLATATPPGSVTV-OH; N-terminus and C-terminus assumed)"
  answer.label: "not fulfilled"
- molecule: "CSCC[C@H](NC(=O)[C@H](CC(C)C)NC(=O)[C@H](C)NC(=O)[C@H](CC(=O)O)NC(=O)[C@@H](NC(=O)[C@H](C)NC(=O)[C@@H](NC(=O)[C@@H](NC(=O)[C@@H](NC(=O)[C@@H](N)C(C)C)C(C)C)C(C)C)C(C)C)[C@@H](C)O)C(=O)N[C@H](C(=O)NCC(=O)N[C@@H](Cc1ccc(O)cc1)C(=O)N[C@H](C(=O)NCC(=O)O)[C@@H](C)O)[C@@H](C)O"
  answer.label: "fulfilled"
- molecule: "CC(C)[C@H](NC(=O)[C@H](CCCNC(=N)N)NC(=O)[C@H](C)NC(=O)[C@H](C)NC(=O)[C@H](C)NC(=O)[C@H](CC(=O)O)NC(=O)[C@H](CO)NC(=O)[C@H](CCC(=O)O)NC(=O)[C@@H]1CCCN1C(=O)[C@@H](NC(=O)[C@H](Cc1ccc(O)cc1)NC(=O)[C@H](Cc1c[nH]cn1)NC(=O)[C@@H](NC(=O)[C@@H]1CCCN1)[C@@H](C)O)C(C)C)C(=O)N[C@H](C(=O)O)[C@@H](C)O"
  answer.label: "not fulfilled"

====

- study.system: HLA-A02 (Homo sapiens, UniProt P04439, D140Y/D185E/D98H/E176V/E277Q/G131W/G231S/I119V/I121R/I166T/I218V/L300P/L318F/N151K/N90K/P208A/P217A/Q86G/Q94H/R138H/R169H/T345S)
- assay.comment: Competition binding assay using soluble HLA class I
Where a SMILES comes first, the peptide text is derived from it.
Hi! Just check whether Ki is below 80 nM. Below gives condition met, equal or above gives condition not met.

- molecule: "CC[C@H](C)[C@H](N)C(=O)N[C@@H](CCSC)C(=O)N[C@@H](C)C(=O)N[C@@H](CS)C(=O)N[C@@H](CCSC)C(=O)N[C@@H](CO)C(=O)N[C@@H](C)C(=O)N[C@@H](CC(=O)O)C(=O)N[C@@H](CC(C)C)C(=O)O (H-IMACMSADL-OH; N-terminus and C-terminus assumed)"
  answer.label: "condition met"
- molecule: "CC(C)C[C@H](NC(=O)[C@H](CC(C)C)NC(=O)[C@@H]1CCCN1C(=O)[C@@H](NC(=O)[C@@H]1CCCN1C(=O)CNC(=O)[C@H](Cc1c[nH]cn1)NC(=O)[C@H](CC(C)C)NC(=O)[C@@H](N)[C@@H](C)O)[C@@H](C)O)C(=O)O"
  answer.label: "condition met"
- molecule: "CC(C)C[C@H](NC(=O)[C@@H](NC(=O)[C@@H](NC(=O)[C@H](CC(C)C)NC(=O)[C@@H](N)CCCNC(=N)N)C(C)C)C(C)C)C(=O)N[C@@H](C)C(=O)N[C@H](C(=O)N[C@@H](C)C(=O)N[C@H](C(=O)O)[C@@H](C)O)[C@@H](C)O"
  answer.label: "condition not met"
- molecule: "CC(C)C[C@H](NC(=O)[C@@H](NC(=O)[C@@H](N)CC(C)C)C(C)C)C(=O)N[C@@H](CC(N)=O)C(=O)N1CCC[C@H]1C(=O)N[C@@H](CO)C(=O)N[C@H](C(=O)N[C@@H](C)C(=O)N[C@@H](C)C(=O)O)C(C)C"
  answer.label: "condition not met"
- molecule: "CC(C)C[C@H](NC(=O)[C@H](Cc1ccccc1)NC(=O)[C@@H](NC(=O)[C@H](CO)NC(=O)CNC(=O)[C@H](CS)NC(=O)[C@H](CC(C)C)NC(=O)[C@@H](N)CC(=O)O)C(C)C)C(=O)N[C@H](C(=O)O)C(C)C (H-DLCGSVFLV-OH; N-terminus and C-terminus assumed)"
  answer.label: "condition not met"
- molecule: "CC[C@H](C)[C@H](NC(=O)[C@@H](N)Cc1ccc(O)cc1)C(=O)N1CCC[C@H]1C(=O)N[C@@H](CC(C)C)C(=O)N[C@H](C(=O)NCC(=O)N[C@@H](C)C(=O)N1CCC[C@H]1C(=O)N[C@@H](CC(C)C)C(=O)O)C(C)C"
  answer.label: "condition met"
- molecule: "CC[C@H](C)[C@H](NC(=O)[C@H](Cc1c[nH]cn1)NC(=O)[C@@H](NC(=O)[C@H](CC(C)C)NC(=O)CNC(=O)[C@@H](NC(=O)[C@H](Cc1ccccc1)NC(=O)[C@@H](NC(=O)[C@@H](N)CO)C(C)C)[C@@H](C)O)[C@@H](C)O)C(=O)O"
  answer.label: "condition not met"
- molecule: "CSCC[C@H](N)C(=O)N[C@@H](C)C(=O)N[C@@H](CC(C)C)C(=O)N[C@@H](Cc1ccc(O)cc1)C(=O)N[C@@H](CC(=O)O)C(=O)N[C@H](C(=O)N[C@H](C(=O)N[C@@H](CO)C(=O)N[C@H](C(=O)O)[C@@H](C)O)C(C)C)C(C)C (H-MALYDVVST-OH; N-terminus and C-terminus assumed)"
  answer.label: "condition not met"
- molecule: "CC(C)C[C@H](NC(=O)[C@H](C)NC(=O)[C@H](CC(C)C)NC(=O)[C@H](CC(C)C)NC(=O)[C@H](CC(C)C)NC(=O)[C@H](CC(C)C)NC(=O)[C@H](CC(C)C)NC(=O)[C@H](CC(C)C)NC(=O)[C@@H]1CCCN1)C(=O)O [PLLLLLLAL] (H-PLLLLLLAL-OH)"
  answer.label: "condition not met"
- molecule: "CC[C@H](C)[C@H](NC(=O)[C@H](CS)NC(=O)CNC(=O)[C@H](CC(C)C)NC(=O)[C@H](CC(C)C)NC(=O)CN)C(=O)N[C@H](C(=O)N[C@H](C(=O)N[C@@H](CO)C(=O)N[C@@H](CC(C)C)C(=O)O)[C@@H](C)O)[C@@H](C)CC"
  answer.label: "condition met"
- molecule: "CC(C)C[C@H](NC(=O)[C@@H]1CCCN1C(=O)[C@H](Cc1c[nH]c2ccccc12)NC(=O)[C@@H]1CCCN1C(=O)[C@H](Cc1ccc(O)cc1)NC(=O)CNC(=O)[C@@H]1CCCN1C(=O)[C@H](CCC(N)=O)NC(=O)[C@H](C)N)C(=O)O (H-AQPGYPWPL-OH; N-terminus and C-terminus assumed)"
  answer.label: "condition not met"
- molecule: "CC(C)C[C@H](NC(=O)[C@@H](NC(=O)[C@H](CO)NC(=O)[C@@H](NC(=O)[C@@H](N)C(C)C)C(C)C)[C@@H](C)O)C(=O)N1CCC[C@H]1C(=O)N[C@@H](CCC(N)=O)C(=O)N[C@@H](C)C(=O)N[C@H](C(=O)O)C(C)C (H-VVSTLPQAV-OH; N-terminus and C-terminus assumed)"
  answer.label: "condition not met"
- molecule: "CC(C)C[C@H](NC(=O)[C@H](CC(C)C)NC(=O)[C@H](Cc1c[nH]c2ccccc12)NC(=O)CNC(=O)[C@H](C)NC(=O)[C@H](Cc1c[nH]c2ccccc12)NC(=O)CNC(=O)[C@H](CC(C)C)NC(=O)CN)C(=O)O"
  answer.label: "condition met"
- molecule: "CC[C@H](C)[C@H](NC(=O)[C@@H](N)Cc1ccccc1)C(=O)N1CCC[C@H]1C(=O)N[C@H](C(=O)N[C@@H](CCC(=O)O)C(=O)N[C@@H](CO)C(=O)N[C@@H](CCSC)C(=O)N[C@@H](CCC(=O)O)C(=O)N[C@H](C(=O)O)[C@@H](C)O)C(C)C (H-FIPVESMET-OH)"
  answer.label: "condition not met"

Where do the numbers come from? From patent US20060093617A1.
